B1: SNAP-FZD5 (Frizzled 5), wild type [human] / DEP_(414–507)-GFP, minimal DEP domain of DVL2 [human] (parent)
chain 1: GRGLSVHTDMASVTKAMAAPESGLEVRDRMWLKITIPNAFLGSDVVDWLYHHVEGFPERREARKYASGLLKAGLIRHTVNKITFSEQCYYVFGD
chain 2: ASKAPVCQEITVPMCRGIGYNLTHMPNQFNHDTQDEAGLEVHQFWPLVEIQCSPDLRFFLCSMYTPICLPDYHKPLPPCRSVCERAKAGCSPLMRQYGFAWPERMSCDRLPVLGRDAEVLCMDYNRSEATTAPPRPFPAKPTLPGPPGAPASGGECPAGGPFVCKCREPFVPILKESHPLYNKVRTGQVPNCAVPCYQPSFSADERTFATFWIGLWSVLCFISTSTTVATFLIDMERFRYPERPIIFLSACYLCVSLGFLVRLVVGHASVACSREHNHIHYETTGPALCTIVFLLVYFFGMASSIWWVILSLTWFLAAGMKWGNEAIAGYAQYFHLAAWLIPSVKSITALALSSVDGDPVAGICYVGNQNLNSLRGFVLGPLVLYLLVGTLFLLAGFVSLFRIRSVIKQGGTKTDKLEKLMIRIGIFTLLYTVPASIVVACYLYEQHYRESWEAALTCACPGHDTGQPRAKPEYWVLMLKYFMCLVVGITSGVWIWSGKTVESWRRFTSRCCCRPRRGHKSGGAMAAGDYPEASAALTGRTGPPGPAATYHKQVSLSHV

Variants of: B1
assay: FZD5-dependent PM recruitment of DEP-GFP (cell scoring)
reported.conditions: with DEP_(414–507)-GFP, 100 cells scored in each case, parent: 88, read off a plot
Answer each item with its documented screen value.

Recorded result, chain 2 W494A , screen value: 21 % of cells

# screen value (variant: chain 2 T500A ) is 36 % of cells

Lab note: measured screen value of chain 2 S497A was 90 % of cells

Entry under test: chain 2 L417A . Its screen value was 37 % of cells

// field: screen value; key: chain 2 S509A ; value = 88 % of cells

Input chain 2 E502A . Output screen value: 92 % of cells

What the record says about chain 2 R237A : screen value is 77 % of cells

The reported screen value of the variant chain 2 I327A was 30 % of cells

screen value reading for chain 2 W504A : 24 % of cells

Entry chain 2 S503A ; screen value = 93 % of cells

screen value reading for chain 2 R510A : 85 % of cells

So for chain 2 T230A , the logged screen value turned out to be 12 % of cells

Form: variant = chain 2 R239A ; screen value = 56 % of cells

Lookup result for chain 2 K499A ; measured screen value: 62 % of cells

Noted for chain 2 R506A : its screen value reads 96 % of cells

// field: screen value; key: chain 2 L420A ; value = 41 % of cells

# screen value of chain 2 V406A = 86 % of cells

In plain terms, chain 2 A326T has a documented screen value of 41 % of cells

Reported screen value of chain 2 K321A : 92 % of cells

Given item chain 2 Y240A , the value recorded as its screen value is 32 % of cells

// screen value value for chain 2 I403A : 70 % of cells

Entry chain 2 G323T — recorded screen value = 92 % of cells

The variant listed as chain 2 P241A shows screen value equal to 20 % of cells

Every entry's value here was drawn from paper PMC5065529.
